Assay: resazurin metabolic signal in HepG2 cells – cell-based, resazurin fluorescence, 24 h, PK04 Diversity Set, profiling panel (AID 1172); also: test concentration not given here
Details: HepG2 viability, higher = more signal
reported property: z-score
Reply with just the number.

Give the measured z-score of CCOC(=O)C[C@H]1[C@H](OC(=O)c2ccc(-c3ccccc3)cc2)[C@@H](NC(=O)c2ccccc2)c2cc(OCCCO)ccc2N1C(=O)c1ccc2ccccc2n1 .
-0.471

Give the measured z-score of COCCOC(=O)N1C(=O)[C@@]2(c3ccccc31)[C@H](C(=O)N1CCCCCCC1)[C@H]1C(=O)O[C@H](c3ccccc3)[C@H](c3ccccc3)N1[C@@H]2c1ccc(OCCO)cc1 .
-0.329

Give the measured z-score of COc1ccc([Si](C)(C)[C@@H]2[C@@H](CCn3cc(CCO)nn3)O[C@]3(C(=O)N(Cc4cccc(N5C(=O)c6cccc7cccc5c67)c4)c4ccccc43)[C@H]2C)cc1 .
-3.66

Give the measured z-score of CC(C)[Si](C#CCCCC#N)(Oc1ccccc1Br)C(C)C .
-0.192

Give the measured z-score of COC(=O)[C@@]1(Cc2ccc(OC)cc2)[C@H]2c3cc(C(=O)N4CCCC4)n(Cc4nc5ccccc5[nH]4)c3C[C@H]2CN1C(=O)c1ccccc1 .
0.0719

Give the measured z-score of CCOC(=O)C1=C[C@@H](C(C)C)N(S(=O)(=O)c2ccc(C)cc2)[C@H]1c1ccccc1F .
-0.298

Give the measured z-score of Cc1ccc(/C=C/C=O)cc1 .
-0.466

---

Experiment: probe aXIP binding to arrayed compounds – biochemical, NeuroSMM set, 635/667 nm fluorescence, primary screen (AID 1119);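 also: probe is the protein aXip251-270 applied at 1 µg/mL to compound-printed slides; binding of probe to printed compounds measured as 667 nm fluorescence plus signal to noise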
Settings: small-molecule microarray, higher = more signal, called active from +8 up or from −8 down
Parameter threshold = -0.2. Response is fulfilled when composite Z-score meets or exceeds it, else not fulfilled.

A selection of reference data follows.
INSERT INTO results (compound, discrete_label) VALUES
  ('CCCC=C(CCC)[C@@H](NC(=O)OCC(C)C)c1ccccc1', 'not fulfilled'),
  ('O=C1C[C@@](C(=O)NCc2ccccc2)(c2ccc([N+](=O)[O-])cc2)[C@@H](c2ccc(CO)cc2)N1CC12CC3CC(CC(C3)C1)C2', 'not fulfilled'),
  ('COC(=O)C(CC#Cc1ccc2c(c1)[C@]1(C(=O)N2)[C@H](c2ccccc2OCCO)N2[C@H](c3ccccc3)[C@H](c3ccccc3)OC(=O)[C@H]2[C@@H]1C(N)=O)C(=O)OC', 'fulfilled'),
  ('OB1C=CCC(CCc2ccccc2)O1 (centres undefined)', 'not fulfilled'),
  ('COc1cc2c(cc1O)C=[N+](Cc1cc3c(cc1Br)OCO3)CC2', 'not fulfilled'),
  ('CC(C)(C)OC(=O)CC[C@]1(C(N)=O)N=C(c2ccc(OCCCO)cc2)O[C@H]1c1ccccc1', 'fulfilled'),
  ('CCCCC(=C=CC[C@H](O)c1cccc(OCCO)c1)C[C@H](O)c1ccccn1', 'fulfilled'),
  ('NC(=O)[C@@]1(Cc2ccccc2)N=C(c2ccc(OCCCO)cc2)O[C@H]1c1ccccc1', 'fulfilled');

Now turn to the next compound.
Kindly determine if composite Z-score recorded for [N-]=[N+]=NCc1ccccc1C[C@@]1(C(=O)NCC(O)CO)N=C(c2ccc(OCCCO)cc2)O[C@@H]1c1ccccc1 (some centres undefined) is above or exactly -0.2.
fulfilled
